# Test system: Staphylococcus epidermidis
# method.description: Antibacterial activity against erythromycin-resistant Staphylococcus epidermidis 19-5 assessed as inhibition of visible bacterial growth incubated for 18 hrs by broth microdilution method
# Format: functional
Below: a set of entries, each annotated with reported MIC.
measured.attribute: MIC (µg/mL)

structure.string: CC[C@H]1OC(=O)[C@H](C)C(=O)[C@H](C)[C@@H](O[C@@H]2O[C@H](C)C[C@H](N(C)C)[C@H]2O)[C@](C)(OC)C[C@@H](C)C(=O)[C@H](C)[C@H]2N(CCCOC(=O)Nc3cccc(C)c3)C(=O)O[C@]12C
measured.attribute: MIC
unit: µg/mL
result.modifier: =
result.value: 0.5

structure.string: CC[C@H]1OC(=O)[C@@](C)(F)C(=O)[C@H](C)[C@@H](O[C@@H]2O[C@H](C)C[C@H](N(C)C)[C@H]2O)[C@](C)(OC)C[C@@H](C)C(=O)[C@H](C)[C@H]2N(CCCOC(=O)Nc3cc(C)cc(C)c3)C(=O)O[C@]12C
measured.attribute: MIC
unit: µg/mL
result.modifier: <
result.value: 0.03

structure.string: CC[C@H]1OC(=O)[C@@](C)(F)C(=O)[C@H](C)[C@@H](O[C@@H]2O[C@H](C)C[C@H](N(C)C)[C@H]2O)[C@](C)(OC)C[C@@H](C)C(=O)[C@H](C)[C@H]2N(CCCOC(=O)Nc3cccc(C(F)(F)F)c3)C(=O)O[C@]12C
measured.attribute: MIC
unit: µg/mL
result.modifier: =
result.value: 0.5

structure.string: CC[C@H]1OC(=O)[C@@](C)(F)C(=O)[C@H](C)[C@@H](O[C@@H]2O[C@H](C)C[C@H](N(C)C)[C@H]2O)[C@](C)(OC)C[C@@H](C)C(=O)[C@H](C)[C@H]2N(CCCOC(=O)Nc3cccc(F)c3)C(=O)O[C@]12C
measured.attribute: MIC
unit: µg/mL
result.modifier: <
result.value: 0.03

structure.string: CC[C@H]1OC(=O)[C@H](C)C(=O)[C@H](C)[C@@H](O[C@@H]2O[C@H](C)C[C@H](N(C)C)[C@H]2O)[C@](C)(OC)C[C@@H](C)C(=O)[C@H](C)[C@H]2N(CCCCn3cnc(-c4cccnc4)c3)C(=O)O[C@]12C
measured.attribute: MIC
unit: µg/mL
result.modifier: =
result.value: 0.25

structure.string: CC[C@H]1OC(=O)[C@@](C)(F)C(=O)[C@H](C)[C@@H](O[C@@H]2O[C@H](C)C[C@H](N(C)C)[C@H]2O)[C@](C)(OC)C[C@@H](C)C(=O)[C@H](C)[C@H]2N(CCCOC(=O)Nc3ccc(-c4ccccc4)cc3)C(=O)O[C@]12C
measured.attribute: MIC
unit: µg/mL
result.modifier: <
result.value: 0.03

structure.string: CC[C@H]1OC(=O)[C@@](C)(F)C(=O)[C@H](C)[C@@H](O[C@@H]2O[C@H](C)C[C@H](N(C)C)[C@H]2O)[C@](C)(OC)C[C@@H](C)C(=O)[C@H](C)[C@H]2N(CCCOC(=O)Nc3ccc4c(c3)OCO4)C(=O)O[C@]12C
measured.attribute: MIC
unit: µg/mL
result.modifier: <
result.value: 0.03

structure.string: CCOc1ccc(NC(=O)OCCCN2C(=O)O[C@]3(C)[C@@H](CC)OC(=O)[C@@](C)(F)C(=O)[C@H](C)[C@@H](O[C@@H]4O[C@H](C)C[C@H](N(C)C)[C@H]4O)[C@](C)(OC)C[C@@H](C)C(=O)[C@H](C)[C@@H]23)cc1
measured.attribute: MIC
unit: µg/mL
result.modifier: =
result.value: 0.06

structure.string: CC[C@H]1OC(=O)[C@@](C)(F)C(=O)[C@H](C)[C@@H](O[C@@H]2O[C@H](C)C[C@H](N(C)C)[C@H]2O)[C@](C)(OC)C[C@@H](C)C(=O)[C@H](C)[C@H]2N(CCCOC(=O)Nc3ccccc3[N+](=O)[O-])C(=O)O[C@]12C
measured.attribute: MIC
unit: µg/mL
result.modifier: =
result.value: 0.125

structure.string: CC[C@H]1OC(=O)[C@@](C)(F)C(=O)[C@H](C)[C@@H](O[C@@H]2O[C@H](C)C[C@H](N(C)C)[C@H]2O)[C@](C)(OC)C[C@@H](C)C(=O)[C@H](C)[C@H]2N(CCCOC(=O)Nc3cccc(F)c3C)C(=O)O[C@]12C
measured.attribute: MIC
unit: µg/mL
result.modifier: <
result.value: 0.03

structure.string: CC[C@H]1OC(=O)[C@@](C)(F)C(=O)[C@H](C)[C@@H](O[C@@H]2O[C@H](C)C[C@H](N(C)C)[C@H]2O)[C@](C)(OC)C[C@@H](C)C(=O)[C@H](C)[C@H]2N(CCCOC(=O)Nc3ccc4sccc4c3)C(=O)O[C@]12C
measured.attribute: MIC
unit: µg/mL
result.modifier: <
result.value: 0.03

structure.string: CC[C@H]1OC(=O)[C@@](C)(F)C(=O)[C@H](C)[C@@H](O[C@@H]2O[C@H](C)C[C@H](N(C)C)[C@H]2O)[C@](C)(OC)C[C@@H](C)C(=O)[C@H](C)[C@H]2N(CCCOC(=O)Nc3cccs3)C(=O)O[C@]12C
measured.attribute: MIC
unit: µg/mL
result.modifier: <
result.value: 0.03

structure.string: CC[C@H]1OC(=O)[C@@](C)(F)C(=O)[C@H](C)[C@@H](O[C@@H]2O[C@H](C)C[C@H](N(C)C)[C@H]2O)[C@](C)(OC)C[C@@H](C)C(=O)[C@H](C)[C@H]2N(CCCOC(=O)Nc3cccc(C)c3)C(=O)O[C@]12C
measured.attribute: MIC
unit: µg/mL
result.modifier: <
result.value: 0.03

structure.string: CC[C@H]1OC(=O)[C@@](C)(F)C(=O)[C@H](C)[C@@H](O[C@@H]2O[C@H](C)C[C@H](N(C)C)[C@H]2O)[C@](C)(OC)C[C@@H](C)C(=O)[C@H](C)[C@H]2N(CCCOC(=O)Nc3ccc(SC)cc3)C(=O)O[C@]12C
measured.attribute: MIC
unit: µg/mL
result.modifier: =
result.value: 0.125

structure.string: CC[C@H]1OC(=O)[C@H](C)[C@@H](O[C@H]2C[C@@](C)(OC)[C@@H](O)[C@H](C)O2)[C@H](C)[C@@H](O[C@@H]2O[C@H](C)C[C@H](N(C)C)[C@H]2O)[C@](C)(OC)C[C@@H](C)C(=O)[C@H](C)[C@@H](O)[C@]1(C)O
measured.attribute: MIC
unit: µg/mL
result.modifier: =
result.value: 0.25

structure.string: CC[C@H]1OC(=O)[C@H](C)C(=O)[C@H](C)[C@@H](O[C@@H]2O[C@H](C)C[C@H](N(C)C)[C@H]2O)[C@](C)(OC)C[C@@H](C)C(=O)[C@H](C)[C@H]2N(CCCOC(=O)Nc3ccc(C(F)(F)F)cc3)C(=O)O[C@]12C
measured.attribute: MIC
unit: µg/mL
result.modifier: =
result.value: 0.06

---

# Test system: Staphylococcus epidermidis
# method.description: Antibacterial activity against erythromycin-resistant Staphylococcus epidermidis 19-5 assessed as inhibition of visible bacterial growth incubated for 18 hrs by broth microdilution method
# Assay type: functional
Property: MIC; scope: individual compounds
measured.attribute: MIC (µg/mL)

structure.string: CC[C@H]1OC(=O)[C@@](C)(F)C(=O)[C@H](C)[C@@H](O[C@@H]2O[C@H](C)C[C@H](N(C)C)[C@H]2O)[C@](C)(OC)C[C@@H](C)C(=O)[C@H](C)[C@H]2N(CCCOC(=O)Nc3ccc(C(C)C)cc3)C(=O)O[C@]12C
unit: µg/mL
result.modifier: <
result.value: 0.03
--
structure.string: CC[C@H]1OC(=O)[C@@](C)(F)C(=O)[C@H](C)[C@@H](O[C@@H]2O[C@H](C)C[C@H](N(C)C)[C@H]2O)[C@](C)(OC)C[C@@H](C)C(=O)[C@H](C)[C@H]2N(CCCOC(=O)Nc3cccc(SC)c3)C(=O)O[C@]12C
unit: µg/mL
result.modifier: =
result.value: 0.03
--
structure.string: CC[C@H]1OC(=O)[C@H](C)[C@@H](O[C@H]2C[C@@](C)(OC)[C@@H](O)[C@H](C)O2)[C@H](C)[C@@H](O[C@@H]2O[C@H](C)C[C@H](N(C)C)[C@H]2O)[C@](C)(O)C[C@@H](C)CN(C)[C@H](C)[C@@H](O)[C@]1(C)O
unit: µg/mL
result.modifier: =
result.value: 0.5
--
structure.string: CC[C@H]1OC(=O)[C@@](C)(F)C(=O)[C@H](C)[C@@H](O[C@@H]2O[C@H](C)C[C@H](N(C)C)[C@H]2O)[C@](C)(OC)C[C@@H](C)C(=O)[C@H](C)[C@H]2N(CCCOC(=O)Nc3ccc4ccccc4c3)C(=O)O[C@]12C
unit: µg/mL
result.modifier: <
result.value: 0.03

Values compiled from ChEMBL document CHEMBL5543097.
